Test: Half-life in human liver microsomes
Type: in vitro ADME
Settings: human, liver microsomes, NADPH, 37° C., read-out: G: half-life human liver microsomes
Records here are stratified by half-life at 1 µM; strata: lo = under 10 min, mid = from 10 min up to 30 min, hi = 30 min and over

- MOLECULE: "CC(C)(C)c1cc(-c2cncc(-c3ccc(C(=O)N4CCC4C(C)(C)O)cc3Cl)c2)ccn1 (stereo not drawn)"
  QUALITATIVE_LABEL: "hi"
- MOLECULE: "CC(C)OC(=O)Nc1ccc(-c2cncc(-c3ccnc(C(C)(C)CO)c3)c2)c(Cl)c1"
  QUALITATIVE_LABEL: "mid"
- MOLECULE: "CC(C)(C)c1cc(-c2cncc(-c3ccc(NC(=O)OC4CCNCC4)cc3Cl)c2)ccn1"
  QUALITATIVE_LABEL: "lo"
- MOLECULE: "CC(C)(C)c1cc(-c2cncc(-c3ccc(C(=O)N4CCC(=O)C(F)C4)cc3Cl)c2)ccn1 (stereo not drawn)"
  QUALITATIVE_LABEL: "mid"
- MOLECULE: "CC(C)(C)c1cc(-c2cncc(-c3ccc(C(=O)N4CCC(O)CC4)cc3Cl)c2)ccn1 [drawing 378]"
  QUALITATIVE_LABEL: "hi"
- MOLECULE: "O=C(c1ccc(-c2cncc(-c3ccnc(C4(F)CCC4)c3)c2)c(Cl)c1)N1CCC(O)CC1"
  QUALITATIVE_LABEL: "hi"
- MOLECULE: "CC(C)OC(=O)N(C)c1ccc(-c2cncc(-c3ccnc(C(C)(C)C)c3)c2)c(Cl)c1"
  QUALITATIVE_LABEL: "hi"
- MOLECULE: "CC1(O)CCCN(C(=O)c2ccc(-c3cncc(-c4ccnc(C(C)(C)C)c4)c3)c(Cl)c2)C1 (stereo not drawn) [drawing 366]"
  QUALITATIVE_LABEL: "lo"
- MOLECULE: "CC(C)(C)c1cc(-c2cncc(-c3ccc(C(=O)N4CC(C(C)(C)O)C4)cc3Cl)c2)ccn1"
  QUALITATIVE_LABEL: "lo"
- MOLECULE: "Cc1c(-c2ccnc(C(C)(C)C)c2)cncc1-c1ccc(C(=O)N2CCCC(O)C2)cc1Cl (stereo not drawn)"
  QUALITATIVE_LABEL: "mid"
- MOLECULE: "CC(C)(C)c1cc(-c2cncc(-c3ccc(C(=O)N4CCC(O)CC4)cc3)c2F)ccn1 [drawing 321]"
  QUALITATIVE_LABEL: "hi"
- MOLECULE: "CC(C)(C)c1cc(-c2cncc(-c3ccc(C(=O)N4CCC[C@@H]4C(C)(C)O)cc3Cl)c2)ccn1"
  QUALITATIVE_LABEL: "mid"
- MOLECULE: "CC(C)(C)c1cc(-c2cncc(-c3ccc(C(=O)N4CCC(O)C(O)C4)cc3Cl)c2)ccn1 (stereo not drawn) [drawing 419]"
  QUALITATIVE_LABEL: "mid"
- MOLECULE: "CC(C)(C)c1cc(-c2cncc(-c3ccc(C(=O)N4CC[C@@H](O)C4)cc3Cl)c2)ccn1"
  QUALITATIVE_LABEL: "lo"
- MOLECULE: "CC(C)(C)c1cc(-c2cccc(-c3ccc(NS(=O)(=O)CC(F)(F)F)cc3Cl)c2)ccn1"
  QUALITATIVE_LABEL: "hi"
- MOLECULE: "CC(C)(C)c1cc(-c2cncc(-c3ccc(C(=O)N4CCC(O)CC4)cc3Cl)c2F)ccn1"
  QUALITATIVE_LABEL: "lo"
- MOLECULE: "CC(C)(C)c1cc(-c2cccc(-c3ccc(C(=O)N4CCC(O)CC4)cc3Cl)c2F)ccn1"
  QUALITATIVE_LABEL: "mid"
- MOLECULE: "CC(C)(CF)c1cc(-c2cncc(-c3ccc(C(=O)N4CCC(O)CC4)cc3Cl)c2)ccn1"
  QUALITATIVE_LABEL: "hi"
- MOLECULE: "O=C(c1ccc(-c2cncc(-c3ccnc(C4CC4)c3)c2)c(Cl)c1)N1CC2CCC(C1)C2O (stereo not drawn)"
  QUALITATIVE_LABEL: "mid"
- MOLECULE: "Cc1cc(S(=O)(=O)NC(C)C)ccc1-c1cncc(-c2ccnc(C(C)(C)C)c2)c1"
  QUALITATIVE_LABEL: "lo"
- MOLECULE: "CC(C)(C)c1cc(-c2cccc(-c3ccc(C(=O)N4CCC(O)CC4)cc3Cl)c2)ccn1 [drawing 377]"
  QUALITATIVE_LABEL: "hi"
- MOLECULE: "CC(C)OC(=O)Nc1ccc(-c2cncc(-c3ccnc(C4(F)CCC4)c3)c2)c(Cl)c1"
  QUALITATIVE_LABEL: "hi"
- MOLECULE: "CC(C)(C)c1cc(-c2cncc(-c3ccc(C(=O)N4CC5C(O)C5C4)cc3Cl)c2)ccn1 (stereo not drawn)"
  QUALITATIVE_LABEL: "lo"

* * *

Test: Kinetic solubility
Format: physicochemical
Conditions: aqueous buffer, kinetic from dmso stock, pH 7.4 buffer, room temperature, 1.0% DMSO, read-out: I: kinetic solubility class
Listed here are molecules together with their documented solubility kinetic at 24 h.
ASSAY_READOUT: solubility kinetic at 24 h

- MOLECULE: "CC(C)(C)c1cc(-c2cncc(-c3ccc(C(=O)N4C[C@@H](O)[C@@H](O)C4)cc3Cl)c2)ccn1"
  ASSAY_READOUT: "solubility kinetic at 24 h"
  TEST_RESULT: "10 to 60 µg/mL"
- MOLECULE: "CC(C)OC(=O)N(C)c1ccc(-c2cncc(-c3ccnc(C(C)(C)C)c3)c2)c(Cl)c1"
  ASSAY_READOUT: "solubility kinetic at 24 h"
  TEST_RESULT: "< 10 µg/mL"
- MOLECULE: "CC(C)(C)c1cc(-c2cncc(-c3ccc(C(=O)N4CCC(O)CC4)cc3Cl)c2)ccn1 [drawing 378]"
  ASSAY_READOUT: "solubility kinetic at 24 h"
  TEST_RESULT: "10 to 60 µg/mL"
- MOLECULE: "CC(C)(C)c1cc(-c2cncc(-c3ccc(C(=O)N4CCC(O)(O)C(F)(F)C4)cc3Cl)c2)ccn1"
  ASSAY_READOUT: "solubility kinetic at 24 h"
  TEST_RESULT: "10 to 60 µg/mL"
- MOLECULE: "CC(C)OC(=O)Nc1ccc(-c2cncc(-c3ccnc(C(C)(C)O)c3)c2)c(Cl)c1"
  ASSAY_READOUT: "solubility kinetic at 24 h"
  TEST_RESULT: "< 10 µg/mL"
- MOLECULE: "CC(C)(C)c1cc(-c2cncc(-c3ccc(NC(=O)N4CCC(O)CC4)cc3Cl)c2)ccn1"
  ASSAY_READOUT: "solubility kinetic at 24 h"
  TEST_RESULT: "< 10 µg/mL"
- MOLECULE: "CS(=O)(=O)Nc1ccc(-c2cncc(-c3ccnc4c3OCCO4)c2)c(Cl)c1"
  ASSAY_READOUT: "solubility kinetic at 24 h"
  TEST_RESULT: "< 10 µg/mL"
- MOLECULE: "CC(C)(C)c1cc(-c2cccc(-c3ccc(NS(=O)(=O)CC(F)(F)F)cc3Cl)c2)ccn1"
  ASSAY_READOUT: "solubility kinetic at 24 h"
  TEST_RESULT: "< 10 µg/mL"
- MOLECULE: "CC(C)(C)c1cc(-c2cncc(-c3ccc(NS(=O)(=O)CC(F)(F)F)cc3Cl)c2)ccn1"
  ASSAY_READOUT: "solubility kinetic at 24 h"
  TEST_RESULT: "< 10 µg/mL"
- MOLECULE: "CC(C)(C)c1cc(-c2cncc(-c3ccc(C(=O)N4CC5(CC(O)C5)C4)cc3Cl)c2)ccn1"
  ASSAY_READOUT: "solubility kinetic at 24 h"
  TEST_RESULT: "10 to 60 µg/mL"
- MOLECULE: "CC(C)(C)c1cc(-c2cc(-c3ccc(C(=O)N4CCC(O)CC4)cc3Cl)ncn2)ccn1 [drawing 376]"
  ASSAY_READOUT: "solubility kinetic at 24 h"
  TEST_RESULT: "10 to 60 µg/mL"
- MOLECULE: "CC1(O)CCCN(C(=O)c2ccc(-c3cncc(-c4ccnc(C(C)(C)C)c4)c3)c(Cl)c2)C1 (stereo not shown) [drawing 366]"
  ASSAY_READOUT: "solubility kinetic at 24 h"
  TEST_RESULT: "10 to 60 µg/mL"
- MOLECULE: "CC(C)(C)c1cc(-c2cncc(-c3ccc(C(=O)N4CCC(O)C(F)(F)C4)cc3Cl)c2)ccn1 (stereo not shown)"
  ASSAY_READOUT: "solubility kinetic at 24 h"
  TEST_RESULT: "10 to 60 µg/mL"
- MOLECULE: "CC(C)(O)c1cc(-c2cncc(-c3ccc(C(=O)N4CCC(O)CC4)cc3Cl)c2)ccn1 [drawing 356]"
  ASSAY_READOUT: "solubility kinetic at 24 h"
  TEST_RESULT: "10 to 60 µg/mL"
- MOLECULE: "CC(C)(C)c1cc(-c2cncc(-c3ccc(C(=O)N4CC(O)C(O)C4)cc3Cl)c2)ccn1 (stereo not shown)"
  ASSAY_READOUT: "solubility kinetic at 24 h"
  TEST_RESULT: "10 to 60 µg/mL"
- MOLECULE: "CC(C)(CF)c1cc(-c2cncc(-c3ccc(C(=O)N4CCC(O)CC4)cc3Cl)c2)ccn1"
  ASSAY_READOUT: "solubility kinetic at 24 h"
  TEST_RESULT: "10 to 60 µg/mL"
